Tested on: Staphylococcus epidermidis EPI2
Assay type: cell-based
Details: agar dilution; 2, 5, 17, 22 median of three tests; paired values two experiments
readout: MIC Staphylococcus epidermidis EPI2 (µg/mL)
Quick note: give the figure in µg/mL, leave out the unit.

Enquiry: Please give the measured MIC Staphylococcus epidermidis EPI2 for this compound: `CCCCCCCCCCCCCCCC(=O)N[C@@H](Cc1c[nH]c2ccccc12)C(=O)N[C@@H](CC(N)=O)C(=O)N[C@@H](CC(=O)O)C(=O)N[C@@H]1C(=O)NCC(=O)N[C@@H](CCCN)C(=O)N[C@@H](CC(=O)O)C(=O)N[C@H](C)C(=O)N[C@@H](CC(=O)O)C(=O)NCC(=O)N[C@H](CO)C(=O)N[C@@H]([C@H](C)CC(=O)O)C(=O)N[C@@H](CC(=O)c2ccccc2N)C(=O)O[C@@H]1C`
Return: 2
